These data points were gathered from PubChem BioAssay (EPA / NIEHS).

molecular target: Cellular tumor antigen p53 (Homo sapiens); experiment: TOX21_p53_BLA_p2_ratio: Tox21 HCT-116 p53 Agonism Beta-lactamase Assay, Ratio, Phase 2 (AID 2283592)
Inconclusive results are not listed. Calls of active or inactive are those of the source. How the source made its calls: active means hit-call score of the fitted dose curve at least 0.9, where 1 is the maximum; inconclusive means response in the unintended direction; inactive means score below 0.9.
Possible outcomes: true (1) (active), false (0) (inactive)

# compound, group
data = [
    ("COC(=O)c1c(C)cc(O)c(C)c1O", "false (0)"),
    ("C1=Cc2ccccc2C1", "false (0)"),
    ("CC1=Nc2ccc3ccccc3c2C1(C)C", "false (0)"),
    ("C/C=C\\C/C=C/CCCCCCCCOC(C)=O", "false (0)"),
    ("NC(=O)NNC(N)=O", "false (0)"),
    ("CC(C)(C)C(=O)C=Cc1ccc(Cl)cc1", "false (0)"),
    ("CCN(CC#N)c1cccc(C)c1", "false (0)"),
    ("CCCNC(=O)NS(=O)(=O)c1ccc(Cl)cc1", "false (0)"),
    ("CCCCCCCCCCCCCOP(=O)(O)O", "false (0)"),
    ("CNC(=S)NN", "false (0)"),
    ("CC(C)c1ccc2c(c1)CC[C@H]1[C@](C)(CN)CCC[C@]21C", "true (1)"),
    ("CCCCCCOC(=O)C(C)CC (stereo not given)", "false (0)"),
    ("CCCCC(CC)CCC(CC(C)C)OS(=O)(=O)O (stereo not given)", "false (0)"),
    ("CO[Si](OC)(OC)c1ccccc1", "false (0)"),
    ("C=C[C@](C)(O)CC[C@@H]1[C@@]2(C)CCCC(C)(C)[C@@H]2CC[C@@]1(C)O", "true (1)"),
]

====

assay: ATG_PPRE_CIS: Attagene CIS-FACTORIAL HepG2 Assay for human Peroxisome Proliferator-activated Response Element (PPRE) (AID 2282958); settings: HepG2 PPRE cis-element reporter, Attagene transcription factor profiling; actives raise or lower the signal
Active and inactive are the calls of the source. How the source made its calls: active means hit-call score of the fitted dose curve at least 0.9, where 1 is the maximum; inactive means score below 0.9.
Outcome codes: active, inactive

# molecule, group
data = [
    ("CC1=NN(c2cc(S(=O)(=O)O)ccc2Cl)C(=O)C1N=Nc1ccccc1 (stereo unspecified)", "inactive"),
    ("CCC(C)OC(=O)c1ccc(O)cc1 (stereo unspecified)", "active"),
    ("O=C1Nc2ccccc2C1(c1ccc(O)cc1)c1ccc(O)cc1", "inactive"),
    ("CC(=O)OCC(C)OC(C)=O (stereo unspecified)", "inactive"),
    ("O=C(O)c1ccccc1Nc1cccc(C(F)(F)F)c1", "active"),
    ("Cc1c(C)c([N+](=O)[O-])c(C(C)(C)C)c([N+](=O)[O-])c1C", "inactive"),
    ("NC(=O)c1ccccc1O", "inactive"),
    ("CCO[Si](CCCN=C=O)(OCC)OCC", "inactive"),
    ("C=C1C2CCC(C2)C1(C)C (stereo unspecified)", "inactive"),
    ("CC1(C)O[C@@H]2C[C@H]3[C@@H]4C[C@H](F)C5=CC(=O)CC[C@]5(C)[C@H]4[C@@H](O)C[C@]3(C)[C@]2(C(=O)CO)O1", "inactive"),
    ("O=C1CCCCCN1SSN1CCCCCC1=O", "inactive"),
    ("CC(=O)C=CC1C(C)=CCC(C)C1(C)C (stereo unspecified)", "inactive"),
    ("CCCC(=O)OCc1ccccc1", "inactive"),
    ("CC(=O)[C@@]1(O)CC[C@H]2[C@@H]3C[C@H](C)C4=CC(=O)C=C[C@]4(C)[C@@]3(F)[C@@H](O)C[C@@]21C", "inactive"),
    ("C1CN(SSN2CCOCC2)CCO1", "inactive"),
    ("Cc1ccc(OC(=O)CC(C)C)cc1", "inactive"),
    ("c1ccc2c(c1)ccc1ncccc12", "inactive"),
    ("O=C(C=Cc1ccccc1)OCc1ccccc1", "inactive"),
    ("C=C[Si](OC(C)=O)(OC(C)=O)OC(C)=O", "inactive"),
    ("CCOC(=O)c1ccccc1C(=C1C=C(Br)C(=O)C(Br)=C1)c1cc(Br)c(O)c(Br)c1", "active"),
    ("[Cl][Bi]([Cl])([c]1ccccc1)([c]1ccccc1)[c]1ccccc1", "inactive"),
    ("C=CC(C)(CCC=C(C)C)OC(=O)C(C)C (stereo unspecified)", "inactive"),
    ("C=C(C)CCO", "inactive"),
    ("Cc1ccc(N)c([N+](=O)[O-])c1", "inactive"),
    ("COC(=O)c1ccc2cc(C(=O)OC)ccc2c1", "inactive"),
    ("N[C@H]1C(O)O[C@H](CO)[C@H](O)[C@@H]1O (stereo partly specified)", "inactive"),
]
